Test system: Plasmodium falciparum
Test method notes: GSK_TCMDC: Inhibition of Plasmodium falciparum 3D7 in whole red blood cells, using parasite LDH activity as an index of growth. Test compounds present at 2uM
Type: functional
Measurement type: Inhibition (%)

- Smiles entry: "O=C(O)C(F)(F)F.c1ccc2[nH]c(-c3ccc(-c4ccc(CN5CCN(CCN6CCOCC6)CC5)cc4)s3)nc2c1"
  Numeric readout: 100
- Smiles entry: "COc1cc(C)nc2ccc(NC(=O)Nc3ccc4nc(C)cc(OC)c4c3)cc12"
  Numeric readout: 100
- Smiles entry: "CS(=O)(=O)O.c1ccc2c(CNCCCCCCNCc3c(OCC4CC4)ccc4ccccc34)c(OCC3CC3)ccc2c1"
  Numeric readout: 93
- Smiles entry: "CC(C)c1sc(N2CCN(C)CC2)nc1C(=O)NCCc1ccc(Cl)c(Cl)c1.O=C(O)C(F)(F)F"
  Numeric readout: 98
- Smiles entry: "O=C(NCCCNc1nc2ccccc2[nH]1)c1cccc(OC(F)(F)F)c1"
  Numeric readout: 100
